MEASUREMENT_SETUP: [M+H]+; instrument: TW; calibrated with polyalanine and drug standards
RECORDED_ENDPOINT: collision cross section (N2) (Å²)

CCOC(=O)COc1ccc2c(=O)cc(-c3ccccc3)oc2c1 [EFLOXATE]
177.4
NC(=O)CCCCC1CCSS1 (configuration not stated) [LIPOAMIDE]
139.3
CC(=O)CCCCn1c(=O)c2c(ncn2C)n(C)c1=O
158.5
C#C[C@]1(O)CC[C@H]2[C@@H]3CCC4=C(CCC(=O)C4)[C@H]3CC[C@@]21C
174.6
COc1cc(-c2coc3cc(OC)c(OC)c(OC)c3c2=O)cc(OC)c1OC
195.4

1. CC[C@H]1OC(=O)[C@H](C)[C@@H](O[C@H]2C[C@@](C)(OC)[C@@H](O)[C@H](C)O2)[C@H](C)[C@@H](O[C@@H]2O[C@H](C)C[C@H](N(C)C)[C@H]2O)[C@](C)(O)C[C@@H](C)/C(=N\OCOCCOC)[C@H](C)[C@@H](O)[C@]1(C)O
2. O=C(O)c1cc(O)c(O)c(O)c1
Incoming: Which value of collision cross section (N2) is greater, the one for 1 or the one for 2 ? Refer to your chosen entry by its label in the reply.
Outgoing: 1

====

MEASUREMENT_SETUP: [M+H]+; instrument: TW; calibrated with polyalanine and drug standards
RECORDED_ENDPOINT: collision cross section (N2) (Å²)

Worked examples follow.
CC1(C)C(=O)[C@@H]2C[C@@]3(O)C4=CC(=O)O[C@@H](c5ccoc5)[C@]4(C)CCC3C(C)(C2=O)[C@H]1CC(=O)O (some centres not stated) [8-HYDROXYCARAPINIC ACID]
202.9
COc1c(N2CCNC(C)C2)c(F)cc2c(=O)c(C(=O)O)cn(C3CC3)c12 (configuration not stated)
189.5

a. CCCCC(CC)CN1CN(CC(CC)CCCC)CC(C)(N)C1 (configuration not stated)
b. COc1cc(O)cc(OC)c1OC [ANTIAROL]
Incoming: Identify the item whose collision cross section (N2) is the smaller number: a or b To answer, give the label that identifies your chosen option.
Outgoing: b

====

MEASUREMENT_SETUP: [M+Na-2H]-; instrument: DT; single field, calibrated with ESI Low Concentration Tuning Mix (Agilent)
RECORDED_ENDPOINT: collision cross section (N2) (Å²)

a. CC[C@H](NC(=O)CC[C@H]([NH3+])C(=O)[O-])C(=O)NCC(=O)[O-] [OPHTHALMATE]
b. Cc1cc2nc3c(=O)[nH]c(=O)nc-3n(C[C@H](O)[C@H](O)[C@H](O)COP(=O)(O)OP(=O)(O)OC[C@H]3O[C@@H](n4cnc5c(N)ncnc54)[C@H](O)[C@@H]3O)c2cc1C [FAD]
Incoming: Between the two listed entries a and b , which has its collision cross section (N2) at the higher number? Indicate your choice by writing its label.
Outgoing: b

1. O=C(O)[C@H]1O[C@H](OP(=O)(O)OP(=O)(O)OC[C@H]2O[C@@H](n3ccc(=O)[nH]c3=O)[C@H](O)[C@@H]2O)[C@H](O)[C@@H](O)[C@@H]1O [URIDINE DIPHOSPHATE GLUCURONIC ACID]
2. O=C(O)CCCCCC(=O)O [6-CARBOXYHEXANOATE]
Incoming: Param pair: 1 , 2 . Output: the one whose collision cross section (N2) is numerically greater. Returns: label corresponding to the selected item.
Outgoing: 1
